These entries and their values trace back to patent US20060069132A1.

system: wild oat; assay: Test B postemergence herbicide test; type: in vivo, Avena fatua; settings: Postemergence, 125 g ai/ha; scale 0 (no effect) to 100 (complete control)
Measured Oat, Wild plant response rating values are reported for all entries that follow.

>  <compound>
C=Cn1nc(C(C)(C)C)cc1C(=O)Nc1cccc(C(=O)N(CC)CC)c1 [Compound 34]

>  <Oat, Wild plant response rating>
10

$$$$
>  <compound>
CCN(CC)C(=O)c1cccc(NC(=O)c2cc(C(C)(C)C)nn2CCF)c1 [Compound 36]

>  <Oat, Wild plant response rating>
20

$$$$
>  <compound>
CCNC(=O)c1cccc(NC(=O)c2cc(C(C)(C)C)nn2CCF)c1 [Compound 35]

>  <Oat, Wild plant response rating>
0

$$$$
>  <compound>
CCNC(=O)c1cccc(NC(=O)c2cc(C(C)(C)C)nn2CC(F)(F)F)c1 [Compound 31]

>  <Oat, Wild plant response rating>
20

$$$$
>  <compound>
CCn1nc(C(C)(C)C)cc1C(=O)Nc1cccc(C(=O)NCCF)c1 [Compound 45]

>  <Oat, Wild plant response rating>
0

$$$$

* * *

test system: ducksalad; assay: Test B flooded paddy test; type: in vivo, Heteranthera limosa; settings: 1000 g ai/ha, visual rating, scale 0 to 100 (0 no effect, 100 complete control), 13 to 15 days
The label Condition met is reserved for Ducksalad plant response rating strictly under 80; Condition not met covers values equal to or above it.

>  <compound>
CC(C)(C)c1cc(C(=O)Nc2cccc(SC(F)(F)F)c2)n(CCF)n1 [Compound 132]

>  <label-value>
Condition met

$$$$
>  <compound>
CCn1nc(C(C)(C)C)cc1C(=O)Nc1cccc2c1CCN(C1CCCC1)C2=O [Compound 66]

>  <label-value>
Condition met

$$$$
>  <compound>
CCN(CC)C(=O)c1cccc(NC(=O)c2cc(C(C)(C)C)nn2CCF)c1 [Compound 36]

>  <label-value>
Condition not met

$$$$
>  <compound>
CC(=NO)c1cccc(NC(=O)c2cc(C(C)(C)C)nn2C)c1 [Compound 107]

>  <label-value>
Condition met

$$$$

* * *

system: blackgrass; assay: Test B postemergence herbicide test; type: in vivo, Alopecurus myosuroides; settings: 125 g ai/ha; visual rating, scale 0 (no effect) to 100 (complete control); postemergence

>  <compound>
CCc1nn(C(C)(C)CC)nc1C(=O)Nc1cc(C(=O)N2CC=CC2)ccc1F [Compound 371]

>  <Blackgrass plant response rating>
0

$$$$
>  <compound>
CCN(CC)C(=O)c1ccc(F)c(NC(=O)C2CC(C(C)(C)C)=NN2CC)c1 (racemic) [Compound 308]

>  <Blackgrass plant response rating>
10

$$$$
>  <compound>
CCNC(=O)c1cccc(NC(=O)c2nn(C3CCCC3)nc2CC)c1 [Compound 356]

>  <Blackgrass plant response rating>
0

$$$$
>  <compound>
CCn1nc(C(C)(C)C)cc1C(=O)Nc1cc(OC(F)(F)F)ccc1F [Compound 338]

>  <Blackgrass plant response rating>
20

$$$$
>  <compound>
Cc1nn(C(C)(C)C)nc1C(=O)Nc1cc(C(=O)N(C)C)ccc1F [Compound 378]

>  <Blackgrass plant response rating>
0

$$$$
>  <compound>
C#CCNC(=O)c1ccc(F)c(NC(=O)c2nn(C(C)(C)C)nc2CC)c1 [Compound 389]

>  <Blackgrass plant response rating>
0

$$$$
>  <compound>
C#CCNC(=O)c1cncc(NC(=O)c2cc(C(C)(C)C)nn2CC)n1 [Compound 289]

>  <Blackgrass plant response rating>
10

$$$$
>  <compound>
CCc1nn(C(C)(C)C)nc1C(=O)Nc1cccc(C(=O)N(C)C)c1 [Compound 364]

>  <Blackgrass plant response rating>
30

$$$$

* * *

system: giant foxtail; assay: Test B pre-/postemergence herbicide test; format: in vivo, Setaria faberi; settings: Postemergence, 500 g ai/ha; visual rating after 13 to 15 days, scale 0 (no effect) to 100 (complete control)

>  <structure-smiles>
C=CCn1nc(C(C)(C)C)cc1C(=O)Nc1cccc(C(=O)NCC)c1

>  <Plant response rating, Foxtail, Giant>
20

$$$$
>  <structure-smiles>
CCn1nc(C(C)(C)C)cc1C(=O)Nc1cc(C(=O)OC(C)(C)C)ccc1F

>  <Plant response rating, Foxtail, Giant>
10

$$$$
>  <structure-smiles>
CON=C(C)c1cccc(NC(=O)c2cc(C(C)(C)C)nn2C)c1

>  <Plant response rating, Foxtail, Giant>
0

$$$$
>  <structure-smiles>
CCn1nc(C(C)(C)C)cc1C(=O)Nc1cccc(C(=O)OCCF)c1C

>  <Plant response rating, Foxtail, Giant>
0

$$$$

* * *

Measured Cocklebur plant response rating values are reported for all entries that follow.
tested on: cocklebur; test: Test B pre-/postemergence herbicide test; type: in vivo, Xanthium strumarium; settings: Postemergence, 125 g ai/ha; scale 0 (no effect) to 100 (complete control)

>  <structure-smiles>
C=Cn1nc(C(C)(C)C)cc1C(=O)Nc1cccc(C(=O)N(CC)CC)c1

>  <Cocklebur plant response rating>
40

$$$$
>  <structure-smiles>
CCn1nc(C(C)(C)C)cc1C(=O)Nc1cccc(C(=O)NCCF)c1

>  <Cocklebur plant response rating>
20

$$$$
>  <structure-smiles>
CCNC(=O)c1cccc(NC(=O)c2cc(C(C)(C)C)nn2CC(F)(F)F)c1

>  <Cocklebur plant response rating>
80

$$$$
>  <structure-smiles>
CCn1nc(C(C)(C)C)cc1C(=O)Nc1cccc(C(=O)NC2CC2)c1

>  <Cocklebur plant response rating>
40

$$$$

* * *

tested on: lambsquarters; experiment: Test B pre-/postemergence herbicide test; assay type: in vivo, Chenopodium album; details: 125 g ai/ha; 0 = no effect, 100 = complete control; preemergence
parameter-measured: Lambsquarters plant response rating (0 to 100 scale)

>  <structure-smiles>
CCNC(=O)c1cccc(NC(=O)c2nn(C(C)(C)C)cc2C(F)(F)F)c1

>  <result-value>
0

$$$$
>  <structure-smiles>
C=CCN(CC=C)C(=O)c1cncc(NC(=O)c2cc(C(C)(C)C)nn2CC)c1

>  <result-value>
40

$$$$
>  <structure-smiles>
CCc1nc(C(C)(C)C)sc1C(=O)Nc1cccc(C(=O)NCCF)c1

>  <result-value>
60

$$$$
>  <structure-smiles>
C#CCNC(=O)c1ccc(F)c(NC(=O)c2cc(C(C)(C)C)nn2CC)n1

>  <result-value>
100

$$$$
>  <structure-smiles>
CCc1nc(C(C)(C)C)sc1C(=O)Nc1cccc(C(=O)N(CC)CC)n1

>  <result-value>
0

$$$$
>  <structure-smiles>
CCc1nc(C(C)(C)C)sc1C(=O)Nc1cccc(C(=O)NC(C)(C)C)n1

>  <result-value>
90

$$$$
>  <structure-smiles>
CCNC(=O)c1ccc(F)c(NC(=O)c2cc(C(C)(C)C)nn2CC)n1

>  <result-value>
100

$$$$
>  <structure-smiles>
CCOC(=O)c1ccnc(NC(=O)c2cn(C(C)(C)C)nc2CC)c1

>  <result-value>
0

$$$$
>  <structure-smiles>
CCc1nc(C(C)(C)C)sc1C(=O)Nc1cccc(C(=O)NCC2CC2)c1

>  <result-value>
100

$$$$

* * *

tested on: corn; assay: Test B pre-/postemergence herbicide test; format: in vivo, Zea mays; details: postemergence, 500 g ai/ha; scale 0 to 100, 0 is no effect, 100 is complete control
Measured Corn plant response rating values are reported for all entries that follow.

>  <structure-smiles>
CCNC(=O)c1cccc(NC(=O)c2nn(C3CCCC3)nc2CC)c1

>  <study-system>
corn

>  <Corn plant response rating>
0

$$$$
>  <structure-smiles>
CCc1nn(C(C)(C)C)nc1C(=O)Nc1cc(C(=O)N2CC=CC2)ccc1F

>  <study-system>
corn

>  <Corn plant response rating>
0

$$$$
>  <structure-smiles>
CCn1nc(C(C)(C)C)cc1C(=O)Nc1ccnc(C(=O)N(C)C)c1

>  <study-system>
corn

>  <Corn plant response rating>
10

$$$$
>  <structure-smiles>
CCNC(=O)c1cc(NC(=O)c2cc(C(C)(C)C)nn2CC)c(F)cc1F

>  <study-system>
corn

>  <Corn plant response rating>
10

$$$$
>  <structure-smiles>
CCn1nc(C(C)(C)C)cc1C(=O)Nc1cc(OC(F)(F)F)ccc1F

>  <study-system>
corn

>  <Corn plant response rating>
20

$$$$

* * *

tested on: johnsongrass; test: Test C pre-/postemergence herbicide test; assay type: in vivo, Sorghum halepense; conditions: 62 g ai/ha; preemergence; scale 0 to 100
parameter-measured: Plant response rating, Johnsongrass

>  <structure-smiles>
CCn1nc(C2(C)CC2)cc1C(=O)Nc1cc(C(=O)N2CC=CC2)ccc1F

>  <result-value>
30

$$$$
>  <structure-smiles>
CCc1nn(C(C)C)nc1C(=O)Nc1cccc(C(=O)N2CCCCC2)c1

>  <result-value>
80

$$$$
>  <structure-smiles>
CCN(CC)C(=O)c1cccc(NC(=O)c2sc(C(C)(C)C)nc2C)c1

>  <result-value>
0

$$$$
>  <structure-smiles>
CCNC(=O)c1ccc(F)c(NC(=O)c2cn(C(C)(C)C)nc2CC)c1

>  <result-value>
60

$$$$
>  <structure-smiles>
Cc1nn(C(C)(C)C)nc1C(=O)Nc1cccc(C(=S)N(C)C)c1

>  <result-value>
100

$$$$
>  <structure-smiles>
CCc1nc(C(C)(C)C)sc1C(=O)Nc1cccc(C(=O)N(CC)CC)c1

>  <result-value>
0

$$$$
>  <structure-smiles>
CCn1nc(C(C)(C)C)cc1C(=O)Nc1cc(C(=O)N(C)OC)ccc1F

>  <result-value>
60

$$$$
